tested-on: T1, EsCas13d, nuclease-dead (Eubacterium siraeum, UniProt B0MS50, R295A;H300A;R849A;H854A)
T1 sequence: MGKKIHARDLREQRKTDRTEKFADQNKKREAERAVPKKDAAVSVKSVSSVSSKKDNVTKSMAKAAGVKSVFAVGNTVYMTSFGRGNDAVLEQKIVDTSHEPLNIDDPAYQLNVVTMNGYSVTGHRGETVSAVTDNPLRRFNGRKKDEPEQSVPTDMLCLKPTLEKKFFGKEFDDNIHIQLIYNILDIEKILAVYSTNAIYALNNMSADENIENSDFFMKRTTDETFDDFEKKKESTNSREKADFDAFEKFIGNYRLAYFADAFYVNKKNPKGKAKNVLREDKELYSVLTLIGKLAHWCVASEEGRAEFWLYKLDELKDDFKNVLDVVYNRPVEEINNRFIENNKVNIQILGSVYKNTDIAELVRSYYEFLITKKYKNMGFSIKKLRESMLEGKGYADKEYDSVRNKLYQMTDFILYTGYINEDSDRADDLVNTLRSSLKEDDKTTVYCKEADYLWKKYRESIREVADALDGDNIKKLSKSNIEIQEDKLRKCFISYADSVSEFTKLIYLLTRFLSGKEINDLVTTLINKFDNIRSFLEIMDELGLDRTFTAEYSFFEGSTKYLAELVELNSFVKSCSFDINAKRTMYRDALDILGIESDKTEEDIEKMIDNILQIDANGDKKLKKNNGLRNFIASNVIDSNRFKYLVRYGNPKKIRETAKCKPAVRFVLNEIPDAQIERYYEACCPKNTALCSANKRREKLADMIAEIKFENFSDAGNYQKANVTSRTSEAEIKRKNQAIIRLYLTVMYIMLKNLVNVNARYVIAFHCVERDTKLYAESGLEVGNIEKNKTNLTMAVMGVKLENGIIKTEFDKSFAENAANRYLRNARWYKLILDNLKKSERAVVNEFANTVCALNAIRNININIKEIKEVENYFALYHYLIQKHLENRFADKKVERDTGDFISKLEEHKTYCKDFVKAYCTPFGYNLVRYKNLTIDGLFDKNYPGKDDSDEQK
test-summary: crRNA (strand 1, pre-loaded); Mg2+; 40 mM Tris-HCl pH 7.5, 150 mM NaCl, 6 mM MgCl2, 1 mM DTT, 0.1% Tween-20, 0.2 mg/ml BSA; 25 C; 10 min per concentration, then washed
protocol-conditions: tags: His6-TwinStrep-SUMO cleaved; N-terminal SNAP kept (SNAP-Surface 488); label: 3' end held by stalled T7 RNA polymerase
Measured Kd by item
Dear colleague, please return just the value in nM, with no unit written.

- target 3 C1G,A12G (mixed) RNA 1: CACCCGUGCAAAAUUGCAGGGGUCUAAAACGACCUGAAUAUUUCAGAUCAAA RNA 2: GGGAAUGGAUCCACAUCUACGAAUUCGUUUUUGAUCUGAGAUAUUCAGGUGUGCAGAUCGGAAGAGCACACGU: 50

Problem: What value of measured Kd is listed for target 2 MT 5'PFS AAA 3'PFS CGC (mixed) RNA 1: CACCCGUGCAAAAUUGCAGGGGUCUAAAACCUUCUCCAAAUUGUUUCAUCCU RNA 2: GGGAAUGGAUCCACAUCUACGAAUUCAAAAGGAUGAAACAAUUUGGAGAAGCGCAGAUCGGAAGAGCACACGU ?
Result: 3.3

Problem: How about this binder: target 1 A9C (mixed) RNA 1: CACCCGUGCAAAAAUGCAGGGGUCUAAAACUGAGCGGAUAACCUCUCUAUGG RNA 2: GGGAAUGGAUCCACAUCUACGAAUUCGUACCAUAGAGAGGUUCUCCGCUCACCGAGAUCGGAAGAGCACACGU
Result: 15

Problem: What do you have for target 1 A18G,U19A (mixed) RNA 1: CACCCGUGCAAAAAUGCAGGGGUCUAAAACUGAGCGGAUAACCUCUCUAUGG RNA 2: GGGAAUGGAUCCACAUCUACGAAUUCGUACCAAGGAGAGGUUAUCCGCUCACCGAGAUCGGAAGAGCACACGU ?
Result: 98
